# Test system: HCC 2998
# EXPERIMENTAL PROTOCOL: NCI tumour cell line growth inhibition, 48 h
Active and inactive are the calls of the source. No stated cut-off is given here; in the data, active = GI50 up to about 1.1 µM and inactive = higher.
Please go through the items and note down their GI50.

Incoming: What value of GI50 has been recorded for this entry: CCN(CC)CC[S+]([O-])c1c2cc(OC)ccc2nc2ccc(OC)cc12 (stereo unspecified)
Outgoing: 18.3 µM (inactive)

Incoming: I am curious: what GI50 value has been reported for `CN(C)C(=S)/N=c1\ss/c(=N\C(=S)N(C)C)n1Cc1ccco1` ?
Outgoing: > 100 µM (inactive)

Incoming: Returns the measured GI50 for the input compound. Input: `O=C(Nc1cccc2ccccc12)c1ccccc1`
Outgoing: > 100 µM (inactive)

Incoming: Fill in: GI50 of `Cc1ccc(C(=O)NCCN(C)C)c2nc3ccccc3cc12` is ___
Outgoing: 2.56 µM (inactive)

Incoming: Record request: GI50 value, item `COC(=O)N/N=C(\C(=O)Nc1cccc([N+](=O)[O-])c1)c1nc2ccc([N+](=O)[O-])cc2nc1O`
Outgoing: 33 µM (inactive)

Incoming: Report GI50 for `O=C(c1ccccc1)C1S(=O)(=O)OCCOS1(=O)=O` please.
Outgoing: > 100 µM (inactive)

Incoming: # input compound: `O=c1oc2nc(-c3ccccc3)cc(C(F)(F)F)c2n1Cc1ccccc1` ; wanted: its GI50
Outgoing: > 25.8 µM (inactive)

Incoming: For C=C1CC(C)(c2cccc(Nc3nc4ccccc4c4occc34)c2)OC1=O (stereo unspecified) , what is its reported GI50?
Outgoing: 2.43 µM (inactive)

Incoming: Name the reported GI50 value associated with the compound `O=c1[nH]nc(Cc2ccccc2)n1/N=C/c1ccccc1O`
Outgoing: > 100 µM (inactive)

Incoming: For `CCOc1ccc(NC(=O)C2=C(C)NC(C)=C(C(=O)Nc3ccc(OCC)cc3)C2c2ccc([N+](=O)[O-])cc2)cc1` , what is its reported GI50?
Outgoing: 22.1 µM (inactive)

Incoming: Tell me the measured GI50 of `COC(=O)c1nc(NC#N)nc(O)c1C` , please.
Outgoing: > 100 µM (inactive)

Incoming: Suppose we examine the compound `O=[N+]([O-])c1ccc(-c2nnc(C34CC5CC(CC(C5)C3)C4)o2)cc1` ; what GI50 value has been reported?
Outgoing: > 100 µM (inactive)

Incoming: // query GI50 value for entry `CC(=O)N1CCN(C=S)CC1`
Outgoing: > 100 µM (inactive)

Incoming: # lookup: GI50 of `Cc1ccc(NC(Nc2ccc(C)cc2C)=C(C(Cl)=C(Cl)Cl)[N+](=O)[O-])c(C)c1`
Outgoing: 18 µM (inactive)

Incoming: Fill in the blank: the reported GI50 of CC1=C(OC2OC(CO)C(O)C(O)C2O)C(=O)C[C@H]2C1=CC[C@@H]1[C@@]2(C)C(=O)C[C@]2(C)[C@@H]([C@@](C)(O)C(=O)CCC(C)(C)O)[C@H](O)C[C@@]12C (stereo partly specified) is ____.
Outgoing: > 100 µM (inactive)

Incoming: Form field: reported GI50 of `COc1cc(C=C2C(=O)NC(=O)NC2=O)cc(OC)c1OC`
Outgoing: > 100 µM (inactive)

Incoming: Reported GI50, compound `COc1ncnc2c1cnn2Cc1cn(CCCCO)nn1` : ____
Outgoing: > 100 µM (inactive)

Incoming: Can you share its GI50? I mean this compound: CCN1CCCC(NCc2c3ccccc3c(CNC3CCCN(CC)C3)c3ccccc23)C1 (stereo unspecified)
Outgoing: 13.1 µM (inactive)

Incoming: Looking for the measured GI50 of C[n+]1c2ccccc2c(NC(CS)C(=O)O)c2ccccc21 (stereo unspecified) , can you help?
Outgoing: 32.9 µM (inactive)

Incoming: Which GI50 reading was recorded for the compound `NC(=O)c1cc2ccccc2o/c1=N/O` ?
Outgoing: > 100 µM (inactive)

Incoming: Which GI50 is reported for this compound? `CC(C)(C)c1cc(OCc2nnc3sc(S)nn23)c(Cl)cc1OCc1nnc2sc(S)nn12`
Outgoing: 31.8 µM (inactive)

Incoming: For `COc1ccc(/N=N/C(=NNC(=O)c2ccc(C)cc2)c2ccc(N(C)C)cc2)cc1` , what is its reported GI50?
Outgoing: 35.3 µM (inactive)

Incoming: Give the measured GI50 of `Cn1c2ccccc2c2c(=S)c3ccccc3ccc21` .
Outgoing: > 100 µM (inactive)

Incoming: For the compound O=C1Cc2c([nH]c3ccccc23)C2(CC3CCCCN13)OCCO2 (stereo unspecified) , what GI50 is on record?
Outgoing: 90.6 µM (inactive)

Incoming: Fill in: GI50 of NS(=O)(=O)c1ccccc1C(=O)N/N=C(\c1nc2ccc([N+](=O)[O-])cc2[nH]c1=O)C(O)c1ccc([N+](=O)[O-])cc1 (stereo unspecified) is ___
Outgoing: > 100 µM (inactive)

Incoming: Looking for the measured GI50 of Cc1ccc(C2NC(=N)NC3=C2CCOc2c3ccc3ccccc23)cc1 (stereo unspecified) , can you help?
Outgoing: 7.16 µM (inactive)

Incoming: May I ask what GI50 has been recorded for `[N-]=[N+]=C(C(=O)OCC#CCOC(=O)C(=[N+]=[N-])S(=O)(=O)c1ccccc1)S(=O)(=O)c1ccccc1` ?
Outgoing: > 10 µM (inactive)

Incoming: Request the reported GI50 associated with Cc1ccc(S(=O)(=O)N/N=C2\CCCCC23CCC(=O)NC3)cc1 (stereo unspecified)
Outgoing: > 100 µM (inactive)

Incoming: Looking for the measured GI50 of `Cc1ccc(CNc2ccc(Br)cc2)cc1` , can you help?
Outgoing: 20.6 µM (inactive)

Incoming: GET /values?readout=GI50&item= `Cc1ccc2nc(-c3ccc(NC(=O)c4ccc(N)cc4)c(S(=O)(=O)O)c3)sc2c1`
Outgoing: > 100 µM (inactive)

Incoming: Fill blank: measured GI50 of the compound O=C1NC2C3CC(OCc4ccccc4)(OCc4ccccc4)C2OC3O1 (stereo unspecified) is ____.
Outgoing: > 50 µM (inactive)

Incoming: Recorded GI50 of `Cc1cc(C)nc(NS(=O)(=O)c2ccc(NC(=O)c3cccn4c(=O)c5ccccc5nc34)cc2)n1` , please.
Outgoing: > 100 µM (inactive)

Incoming: What GI50 value was documented for this compound, COC(=O)C1=C(C[S+]([O-])c2ccc([N+](=O)[O-])cc2[N+](=O)[O-])C2C=CC1C2 (stereo unspecified) ?
Outgoing: 38.4 µM (inactive)

Incoming: Which GI50 value belongs to CC(=O)OCC1OC(n2c3c(cc(C#N)c2=O)CCCCCC3)C(OC(C)=O)C(OC(C)=O)C1OC(C)=O (stereo unspecified) ?
Outgoing: > 100 µM (inactive)

Incoming: Any idea what GI50 was measured for CC1(C)OCC(C2OC(OC(=O)c3ccc([N+](=O)[O-])cc3)C3OC(C)(C)OC23)O1 (stereo unspecified) ?
Outgoing: > 100 µM (inactive)

Incoming: For O=C1C2CCC(C2)C12CC1(c3ccccc3)C(=O)c3ccccc3N1O2 (stereo unspecified) , what is its reported GI50?
Outgoing: > 100 µM (inactive)

Incoming: Reported GI50, compound `COc1ccc(CN/C=N/C(C#N)=C(\N)C#N)cc1OC` : ____
Outgoing: > 100 µM (inactive)

Incoming: Give its GI50 value. Item: `CC1(C)C(=O)/C=C\C(=O)C(C)(C)C(=O)/C=C\C(=O)C(C)(C)C2=CC=C(O2)C(C)(C)C(=O)/C=C\C1=O`
Outgoing: 11.7 µM (inactive)

Incoming: Which GI50 is listed for `Cc1ccc(NC(=O)CC/C(CC(=O)C(C)(C)C)=N\NC(=O)C[n+]2ccccc2)cc1C` ?
Outgoing: > 100 µM (inactive)

Incoming: Give the measured GI50 of CCCC(Sc1nc(N)nc2nc[nH]c12)C(=O)O (stereo unspecified) .
Outgoing: 34.3 µM (inactive)

Incoming: Need GI50 of `O=P1(c2ccccc2)c2ccccc2-c2ccccc21` , thanks.
Outgoing: > 100 µM (inactive)

----------
# Test system: SNB-78
# EXPERIMENTAL PROTOCOL: NCI tumour cell line growth inhibition, 48 h
Active and inactive are the calls of the source. Cut-off read from the data, not from the text of the source: active = GI50 up to about 1.1 µM and inactive = higher.
OBSERVED PROPERTY: GI50

Incoming: Suppose we examine the compound `O=C(c1ccccc1)C1S(=O)(=O)OCCOS1(=O)=O` ; what GI50 value has been reported?
Outgoing: > 100 µM (inactive)

Incoming: Endpoint output: GI50 of `CC1(C)C(=O)/C=C\C(=O)C(C)(C)C(=O)/C=C\C(=O)C(C)(C)C2=CC=C(O2)C(C)(C)C(=O)/C=C\C1=O` . Value?
Outgoing: 3.71 µM (inactive)

Incoming: For the compound `CCc1cccc(NC(=O)c2cc(/C=C/c3ccccc3)nc(S)n2)c1` , what GI50 is on record?
Outgoing: > 100 µM (inactive)

Incoming: Param item = O=C1C2c3[nH]c4ccccc4c3C3CCCCCCC3C2C(=O)N1c1ccccc1 (stereo not given) ; retrieve measured GI50.
Outgoing: 13.2 µM (inactive)

Incoming: What measured GI50 goes with `CC1=C2C(=O)[C@H]3[C@@H](CC=C4C[C@@H](O)CC[C@@]43C)[C@@H]2CC[C@]12O[C@@H]1C[C@H](C)CN[C@H]1[C@H]2C` ?
Outgoing: 19.2 µM (inactive)

Incoming: Entry `O=C1[C@@H]2C3C=CC([C@H]4C(=O)N(CO)C(=O)[C@@H]34)[C@@H]2C(=O)N1CO` has what GI50?
Outgoing: > 100 µM (inactive)

Incoming: Any idea what GI50 was measured for `Cc1cc(C)nc(NS(=O)(=O)c2ccc(NC(=O)c3cccn4c(=O)c5ccccc5nc34)cc2)n1` ?
Outgoing: 39.4 µM (inactive)

Incoming: Requested read-out: GI50. Entry: Cc1ccc(S(=O)(=O)N/N=C2\CCCCC23CCC(=O)NC3)cc1 (stereo not given)
Outgoing: > 100 µM (inactive)

Incoming: Endpoint output: GI50 of `COC(=O)/C=C/c1c(CC=C(C)C)ncn1C` . Value?
Outgoing: 53.2 µM (inactive)

Incoming: I'd like to know its GI50. The compound in question is `CC(=O)NC1=C(Nc2ccc(C)cc2)C(=O)c2ccccc2C1=O`
Outgoing: 44.9 µM (inactive)

Incoming: Look at this compound and give its reported GI50. O=C1CC(O)C=C1Nc1ccc(Cl)cc1 (stereo not given)
Outgoing: 39.6 µM (inactive)

Incoming: Give its GI50 value. Item: N#CC(C#N)=c1ccc(=C2NCC3CCCN23)cc1 (stereo not given)
Outgoing: > 100 µM (inactive)

Incoming: Consider the compound `O=C1c2ccccc2C(=O)c2c(O)c(NCCCNCCO)cc(O)c21` and give its measured GI50.
Outgoing: 11.2 µM (inactive)

Incoming: For the compound COc1ccc2c(c1)Oc1cc(O)ccc1[C@@H]2c1ccccc1C(=O)NC(C)c1ccccc1 (stereo not given in full) , what GI50 is on record?
Outgoing: 13.3 µM (inactive)

Incoming: I am curious: what GI50 value has been reported for `O=C1[C@@H]2C(c3cccc([N+](=O)[O-])c3)=NO[C@@H]2C(=O)N1c1ccc(Cc2ccc(N3C(=O)[C@H]4C(c5cccc([N+](=O)[O-])c5)=NO[C@H]4C3=O)cc2)cc1` ?
Outgoing: > 100 µM (inactive)

src = ChEMBL document CHEMBL1201862
